Measured Attribute: logP
Respond using a number only.

# input Recall and state the measured logP for CCOC(=O)C(=Cc1ccccc1)NC=O .
# output 2.48

# input Name the recorded logP of the compound listed here: CCOC(=O)C(=Cc1ccc([N+](=O)[O-])cc1)NC=O
# output 2.05

# input Give the value of logP reported for the following: CCOC(=O)C(=Cc1ccc2c(c1)OCO2)NC=O
# output 1.66

# input Note logP for the compound shown: CCOC(=O)C(=Cc1ccoc1)NC=O
# output 2.08

# input Give the reported value of logP for this record: CCOC(=O)C(=Cc1ccc(OC)c(OC)c1)NC=O
# output 1.97

# input Supply logP value. Item: CCOC(=O)C(=Cc1ccc(Cl)cc1)NC=O
# output 2.65

# input State its logP: CCOC(=O)C(=Cc1cccc(Cl)c1)NC=O
# output 2.51

# input Assign logP to the following record: CCOC(=O)C(=Cc1ccc(OC)cc1)NC=O
# output 2.22

# input Specify reported logP for the compound shown: CCOC(=O)C(=Cc1ccccc1Cl)NC=O
# output 2.41

# input Supply logP value. Item: CCOC(=O)C(=Cc1cccc([N+](=O)[O-])c1)NC=O
# output 2.05
